The following molecules are shown together with reported inhibition values.
molecular target: Ephrin type-A receptor 2 (Homo sapiens); settings: at 1 µM;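 also: value is the mean inhibition of EPHA2, measured in the GSK PKIS screen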

- Molecule: "CCOc1nccc2c1nc(-c1nonc1N)n2CC"
  inhibition [%]: 1.93
- Molecule: "CCCN1CCCC(c2ccc(Nc3nc(Nc4cc(F)ccc4C(N)=O)c4cc[nH]c4n3)c(OC)c2)C1 (stereo not given)"
  inhibition [%]: -1.1
- Molecule: "N#Cc1cccc(Nc2nccc(-c3cnn4ncccc34)n2)c1"
  inhibition [%]: 15
- Molecule: "Cc1ccc(NC(=O)CC2CC2)cc1-c1ccc(C(=O)NCC2CC2)cc1"
  inhibition [%]: 1.4
- Molecule: "c1ccc(Cc2nc3ccc(Nc4ncnc5ccccc45)cc3[nH]2)cc1"
  inhibition [%]: 0.81
- Molecule: "O=S(=O)(CCOCc1ccc(-c2ccc3ncnc(Nc4ccc(OCc5cccc(F)c5)c(Cl)c4)c3c2)o1)c1ccccc1"
  inhibition [%]: -2.3
- Molecule: "c1ccc(Nc2ncc(-c3ccccc3)o2)cc1"
  inhibition [%]: 0.47
- Molecule: "Nc1nccc(-c2c(-c3ccc(F)cc3)nn3cc(C(F)(F)F)ccc23)n1"
  inhibition [%]: -0.02
- Molecule: "CS(=O)(=O)CCNCc1nc(-c2ccc3ncnc(Nc4ccc(OCc5cccc(C(F)(F)F)c5)cc4)c3c2)cs1"
  inhibition [%]: 0.05
- Molecule: "CN(C)C(=O)O[C@H]1CN[C@H](C#Cc2cc3ncnc(Nc4ccc(OCc5cccc(F)c5)c(Cl)c4)c3s2)C1"
  inhibition [%]: 0.86

====

biological target: Fibroblast growth factor receptor 3 (Homo sapiens) (UniProt P22607); conditions: at 0.1 µM;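 also: each value is a mean percent inhibition of FGFR3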
Sequence (P22607 23-806 limits assumed): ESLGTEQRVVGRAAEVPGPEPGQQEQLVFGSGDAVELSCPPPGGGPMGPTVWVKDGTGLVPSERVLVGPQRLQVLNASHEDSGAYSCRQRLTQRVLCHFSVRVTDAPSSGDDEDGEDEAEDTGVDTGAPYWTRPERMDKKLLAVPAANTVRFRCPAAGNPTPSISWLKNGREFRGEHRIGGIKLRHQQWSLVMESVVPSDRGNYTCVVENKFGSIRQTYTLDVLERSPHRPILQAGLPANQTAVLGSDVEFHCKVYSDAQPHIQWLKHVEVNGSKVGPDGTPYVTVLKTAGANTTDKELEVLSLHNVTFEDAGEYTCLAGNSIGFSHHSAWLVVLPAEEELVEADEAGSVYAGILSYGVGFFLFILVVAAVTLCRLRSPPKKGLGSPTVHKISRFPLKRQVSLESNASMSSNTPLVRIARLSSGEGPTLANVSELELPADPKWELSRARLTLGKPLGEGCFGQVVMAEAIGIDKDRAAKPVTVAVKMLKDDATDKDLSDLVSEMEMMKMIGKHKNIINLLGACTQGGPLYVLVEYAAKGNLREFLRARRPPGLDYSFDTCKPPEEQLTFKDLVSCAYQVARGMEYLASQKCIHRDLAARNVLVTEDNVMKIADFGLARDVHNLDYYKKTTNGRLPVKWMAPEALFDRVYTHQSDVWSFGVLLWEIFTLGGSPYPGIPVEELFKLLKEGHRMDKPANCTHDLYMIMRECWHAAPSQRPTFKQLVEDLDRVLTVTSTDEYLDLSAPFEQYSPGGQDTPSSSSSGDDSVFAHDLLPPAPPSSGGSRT

- Molecular string: "[O-][S+]1CCN(Cc2ccc(-c3ccc4ncnc(Nc5ccc(OCc6ccccc6)c(Cl)c5)c4c3)o2)CC1"
  inhibition [%]: -0.22
- Molecular string: "CN(C)CCCn1c(-c2nonc2N)nc2cnccc21"
  inhibition [%]: 6.01
- Molecular string: "COC(=O)c1cncc(/C=C/c2c(C)cc(O)cc2C)c1"
  inhibition [%]: 6.59
- Molecular string: "Nc1nccc(-c2c(-c3ccc(F)cc3)nn3cc(C(F)(F)F)ccc23)n1"
  inhibition [%]: 6.31
- Molecular string: "Nc1nccc(-c2c(-c3ccc(F)cc3)ncn2CCCN2CCOCC2)n1"
  inhibition [%]: 4.29
- Molecular string: "Cc1nc(-c2ccccc2)n2nc(NCCCN3CCOCC3)ncc12"
  inhibition [%]: 6.35
- Molecular string: "NS(=O)(=O)c1ccc(-c2cc3ccncc3cc2OCc2ccccc2)cc1"
  inhibition [%]: 2.04
- Molecular string: "O=C1Nc2ccccc2/C1=C/Nc1ccc2[nH]c(=O)[nH]c2c1"
  inhibition [%]: 10
- Molecular string: "Cc1ccc(O)cc1Nc1ccnc2ccc(S(C)(=O)=O)cc12"
  inhibition [%]: 6.01
- Molecular string: "NS(=O)(=O)c1cccc(Nc2cc(-c3ccc(F)cc3)n[nH]2)c1"
  inhibition [%]: 8.19
- Molecular string: "N#Cc1c(NC(=O)c2ccccc2F)sc2c1CCCC2"
  inhibition [%]: -2.94

====

molecular target: Serine/threonine-protein kinase Nek1 (Homo sapiens) (UniProt Q96PY6); settings: at 0.1 µM;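 also: mean percent inhibition of NEK1 kinase, from the GSK PKIS (published kinase inhibitor set) screening panel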
Sequence (Q96PY6 whole entry): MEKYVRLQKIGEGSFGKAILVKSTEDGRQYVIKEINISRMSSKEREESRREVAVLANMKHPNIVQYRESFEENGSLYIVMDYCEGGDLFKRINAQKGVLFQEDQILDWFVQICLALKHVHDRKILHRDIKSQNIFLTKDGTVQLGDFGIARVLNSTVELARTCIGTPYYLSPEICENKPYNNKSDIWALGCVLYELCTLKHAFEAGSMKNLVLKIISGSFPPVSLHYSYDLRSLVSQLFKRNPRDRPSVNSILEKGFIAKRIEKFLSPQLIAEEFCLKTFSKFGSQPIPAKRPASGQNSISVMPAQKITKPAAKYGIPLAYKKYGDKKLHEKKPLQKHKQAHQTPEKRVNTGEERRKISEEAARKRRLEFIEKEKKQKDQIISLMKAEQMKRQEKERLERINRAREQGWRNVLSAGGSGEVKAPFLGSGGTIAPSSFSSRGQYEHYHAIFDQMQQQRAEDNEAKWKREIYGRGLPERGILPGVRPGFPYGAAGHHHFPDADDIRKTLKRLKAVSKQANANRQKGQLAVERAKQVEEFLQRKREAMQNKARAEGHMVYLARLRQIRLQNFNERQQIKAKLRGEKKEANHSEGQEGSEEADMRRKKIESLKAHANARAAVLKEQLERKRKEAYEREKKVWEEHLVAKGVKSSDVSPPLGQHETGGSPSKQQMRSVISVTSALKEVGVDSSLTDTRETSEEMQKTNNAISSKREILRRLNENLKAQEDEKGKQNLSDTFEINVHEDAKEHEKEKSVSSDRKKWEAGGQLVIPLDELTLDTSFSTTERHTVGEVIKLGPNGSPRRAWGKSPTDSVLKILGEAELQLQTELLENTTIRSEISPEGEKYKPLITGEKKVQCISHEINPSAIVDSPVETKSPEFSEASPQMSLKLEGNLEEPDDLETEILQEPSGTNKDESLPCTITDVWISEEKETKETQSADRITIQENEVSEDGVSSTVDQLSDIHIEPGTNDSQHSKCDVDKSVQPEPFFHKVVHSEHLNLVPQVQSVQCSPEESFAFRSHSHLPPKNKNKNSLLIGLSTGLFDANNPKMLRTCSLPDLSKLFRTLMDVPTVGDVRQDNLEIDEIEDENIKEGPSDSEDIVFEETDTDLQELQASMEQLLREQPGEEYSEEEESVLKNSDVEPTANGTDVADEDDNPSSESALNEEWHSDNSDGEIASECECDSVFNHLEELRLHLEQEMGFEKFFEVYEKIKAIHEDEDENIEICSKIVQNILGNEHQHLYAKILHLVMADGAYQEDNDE

- Molecule: "CCS(=O)(=O)c1ccc(OC)c(Nc2nccc(N(C)c3ccc4c(C)n[nH]c4c3)n2)c1"
  inhibition, %: 2.52
- Molecule: "Cc1cc(Cl)cc2c1NC(=O)C2=NNc1ccc(S(N)(=O)=O)cc1"
  inhibition, %: 1.58
- Molecule: "NS(=O)(=O)c1ccc(Nc2cc(-c3cccc(O)c3)n[nH]2)cc1"
  inhibition, %: 3.72
- Molecule: "CCn1c(-c2nonc2N)nc2ccc(F)cc21"
  inhibition, %: 3.29
- Molecule: "CCCN1CCCC(c2ccc(Nc3nc(Nc4cc(F)ccc4C(N)=O)c4cc[nH]c4n3)c(OC)c2)C1 (stereo unspecified)"
  inhibition, %: 3.63
- Molecule: "Nc1nccc(C#Cc2cncnc2Nc2ccc(OCc3cccc(F)c3)c(Cl)c2)n1"
  inhibition, %: 2.09
- Molecule: "[O-][S+]1CCN(Cc2ccc(-c3ccc4ncnc(Nc5ccc(OCc6ccccc6)c(Cl)c5)c4c3)o2)CC1"
  inhibition, %: 0.94
- Molecule: "NC(=O)c1cccc(Nc2nccc(Nc3cccc(F)c3)n2)c1"
  inhibition, %: 2.58
- Molecule: "Cc1cc(O)cc(C)c1/C=C/c1cncc(C(=O)N(C)C)c1"
  inhibition, %: 2.11
- Molecule: "Cc1nc(-c2ccccc2)n2nc(NCCCN3CCOCC3)ncc12"
  inhibition, %: 1.82
- Molecule: "C[C@@H](Oc1cc(-n2cnc3ccc(OCC4CCN(C)CC4)cc32)sc1C(N)=O)c1ccccc1C(F)(F)F"
  inhibition, %: 18.4
- Molecule: "c1ccc(Nc2ncc(-c3ccccc3)o2)cc1"
  inhibition, %: 2.71
- Molecule: "CN(C)C(=O)O[C@@H]1CN[C@@H](C#Cc2cc3ncnc(Nc4ccc(OCc5cccc(F)c5)c(Cl)c4)c3s2)C1"
  inhibition, %: 1.22
- Molecule: "Cc1ccc(C(=O)NC2CC2)cc1-c1ccc2[nH]ncc2c1"
  inhibition, %: -0.31
- Molecule: "NS(=O)(=O)c1cccc(-c2cc3ccncc3cc2OCc2ccccc2)c1"
  inhibition, %: 2.64
- Molecule: "NS(=O)(=O)c1ccc(NC=C2C(=O)Nc3ccc4ncsc4c32)cc1"
  inhibition, %: 3.02
- Molecule: "CN(C)c1cc2c(Nc3ccc4c(cnn4Cc4ccccc4)c3)ncnc2cn1"
  inhibition, %: 0.59
- Molecule: "NC(=O)c1sc(-n2cnc3ccccc32)cc1OCc1ccccc1Br"
  inhibition, %: 1.75
- Molecule: "CS(=O)(=O)Nc1cccc(-c2ccc3c(NC(=O)C4CC4)n[nH]c3c2)c1"
  inhibition, %: 0.75
- Molecule: "FC(F)(F)c1ccc(-c2nn3ncccc3c2-c2ccnc(Nc3ccc4c(c3)OCCO4)n2)cc1"
  inhibition, %: 4.77
- Molecule: "Cc1cc(-c2ccccn2)cc(C)c1/C=C/c1cncc(-c2nn[nH]n2)c1"
  inhibition, %: 1.6
- Molecule: "CCS(=O)(=O)c1ccc(OC)c(Nc2ncc(-c3cccc(OC)c3)o2)c1"
  inhibition, %: 0.44
- Molecule: "NS(=O)(=O)c1ccc(N/N=C2\\C(=O)Nc3ccc(Cl)cc32)cc1"
  inhibition, %: 2.48
- Molecule: "COc1cccc(-n2ncc3c(N/N=C/c4ccc(C)cc4)ncnc32)c1"
  inhibition, %: 5.55
- Molecule: "Nc1nccc(-c2c(-c3ccc(F)cc3)ncn2CCCN2CCOCC2)n1"
  inhibition, %: 2.11
- Molecule: "COc1cc(Nc2nccc(-c3cnn4ncccc34)n2)cc(OC)c1"
  inhibition, %: 2.05
- Molecule: "COc1cccc(-n2nc(C)c3c(N/N=C(\\C)c4ccncc4)ncnc32)c1"
  inhibition, %: 1.7
- Molecule: "CC(C)c1ccc2c(c1)NC(=O)/C2=N/Nc1ccc(S(N)(=O)=O)cc1"
  inhibition, %: 0.8
- Molecule: "COc1cc2ncnc(Nc3ccc4c(cnn4Cc4ccccc4)c3)c2cc1OC"
  inhibition, %: 1.6
- Molecule: "COc1ccc2ncnc(Nc3ccc(OCc4ccccc4)cc3)c2c1"
  inhibition, %: 0.79
- Molecule: "COc1ccc(-c2nn3ncccc3c2-c2ccnc(Nc3cccc(C(F)(F)F)c3)n2)cc1"
  inhibition, %: 1.37
- Molecule: "O=C1Nc2ccccc2/C1=C/Nc1ccc2[nH]c(=O)[nH]c2c1"
  inhibition, %: 2.99
- Molecule: "Cc1ccc2c(-c3ccnc(Nc4ccc5c(c4)OCCO5)n3)c(-c3ccc(C(F)(F)F)cc3)nn2n1"
  inhibition, %: 0.53
- Molecule: "NS(=O)(=O)c1ccc(-c2cc3ccncc3cc2OCc2ccccc2)cc1"
  inhibition, %: 2.31
- Molecule: "NS(=O)(=O)c1cccc(Nc2cc(-c3ccc(F)cc3)n[nH]2)c1"
  inhibition, %: 1.79
- Molecule: "CC(C)c1ccc(Nc2nccc(-c3cnn4ncccc34)n2)cc1"
  inhibition, %: 3.1
- Molecule: "COc1cccc(-n2ncc3c(N/N=C/c4ccc(S(C)(=O)=O)cc4)ncnc32)c1"
  inhibition, %: 1.92
- Molecule: "O=S(=O)(CCOCc1ccc(-c2ccc3ncnc(Nc4ccc(OCc5cccc(F)c5)c(Cl)c4)c3c2)o1)c1ccccc1"
  inhibition, %: 1.11
- Molecule: "N#Cc1cccc(Nc2nccc(-c3cnn4ncccc34)n2)c1"
  inhibition, %: 2.07
- Molecule: "N#Cc1c(NC(=O)c2ccccc2F)sc2c1CCCC2"
  inhibition, %: 1.15
- Molecule: "Oc1cccc(-c2nc(-c3ccccc3)[nH]c2-c2ccncc2)c1"
  inhibition, %: 2.81

====

tested on: Leucine-rich repeat serine/threonine-protein kinase 2 (Homo sapiens), Q5S007 [G2019S]; details: at 0.1 µM
Sequence (Q5S007 whole entry G2019S): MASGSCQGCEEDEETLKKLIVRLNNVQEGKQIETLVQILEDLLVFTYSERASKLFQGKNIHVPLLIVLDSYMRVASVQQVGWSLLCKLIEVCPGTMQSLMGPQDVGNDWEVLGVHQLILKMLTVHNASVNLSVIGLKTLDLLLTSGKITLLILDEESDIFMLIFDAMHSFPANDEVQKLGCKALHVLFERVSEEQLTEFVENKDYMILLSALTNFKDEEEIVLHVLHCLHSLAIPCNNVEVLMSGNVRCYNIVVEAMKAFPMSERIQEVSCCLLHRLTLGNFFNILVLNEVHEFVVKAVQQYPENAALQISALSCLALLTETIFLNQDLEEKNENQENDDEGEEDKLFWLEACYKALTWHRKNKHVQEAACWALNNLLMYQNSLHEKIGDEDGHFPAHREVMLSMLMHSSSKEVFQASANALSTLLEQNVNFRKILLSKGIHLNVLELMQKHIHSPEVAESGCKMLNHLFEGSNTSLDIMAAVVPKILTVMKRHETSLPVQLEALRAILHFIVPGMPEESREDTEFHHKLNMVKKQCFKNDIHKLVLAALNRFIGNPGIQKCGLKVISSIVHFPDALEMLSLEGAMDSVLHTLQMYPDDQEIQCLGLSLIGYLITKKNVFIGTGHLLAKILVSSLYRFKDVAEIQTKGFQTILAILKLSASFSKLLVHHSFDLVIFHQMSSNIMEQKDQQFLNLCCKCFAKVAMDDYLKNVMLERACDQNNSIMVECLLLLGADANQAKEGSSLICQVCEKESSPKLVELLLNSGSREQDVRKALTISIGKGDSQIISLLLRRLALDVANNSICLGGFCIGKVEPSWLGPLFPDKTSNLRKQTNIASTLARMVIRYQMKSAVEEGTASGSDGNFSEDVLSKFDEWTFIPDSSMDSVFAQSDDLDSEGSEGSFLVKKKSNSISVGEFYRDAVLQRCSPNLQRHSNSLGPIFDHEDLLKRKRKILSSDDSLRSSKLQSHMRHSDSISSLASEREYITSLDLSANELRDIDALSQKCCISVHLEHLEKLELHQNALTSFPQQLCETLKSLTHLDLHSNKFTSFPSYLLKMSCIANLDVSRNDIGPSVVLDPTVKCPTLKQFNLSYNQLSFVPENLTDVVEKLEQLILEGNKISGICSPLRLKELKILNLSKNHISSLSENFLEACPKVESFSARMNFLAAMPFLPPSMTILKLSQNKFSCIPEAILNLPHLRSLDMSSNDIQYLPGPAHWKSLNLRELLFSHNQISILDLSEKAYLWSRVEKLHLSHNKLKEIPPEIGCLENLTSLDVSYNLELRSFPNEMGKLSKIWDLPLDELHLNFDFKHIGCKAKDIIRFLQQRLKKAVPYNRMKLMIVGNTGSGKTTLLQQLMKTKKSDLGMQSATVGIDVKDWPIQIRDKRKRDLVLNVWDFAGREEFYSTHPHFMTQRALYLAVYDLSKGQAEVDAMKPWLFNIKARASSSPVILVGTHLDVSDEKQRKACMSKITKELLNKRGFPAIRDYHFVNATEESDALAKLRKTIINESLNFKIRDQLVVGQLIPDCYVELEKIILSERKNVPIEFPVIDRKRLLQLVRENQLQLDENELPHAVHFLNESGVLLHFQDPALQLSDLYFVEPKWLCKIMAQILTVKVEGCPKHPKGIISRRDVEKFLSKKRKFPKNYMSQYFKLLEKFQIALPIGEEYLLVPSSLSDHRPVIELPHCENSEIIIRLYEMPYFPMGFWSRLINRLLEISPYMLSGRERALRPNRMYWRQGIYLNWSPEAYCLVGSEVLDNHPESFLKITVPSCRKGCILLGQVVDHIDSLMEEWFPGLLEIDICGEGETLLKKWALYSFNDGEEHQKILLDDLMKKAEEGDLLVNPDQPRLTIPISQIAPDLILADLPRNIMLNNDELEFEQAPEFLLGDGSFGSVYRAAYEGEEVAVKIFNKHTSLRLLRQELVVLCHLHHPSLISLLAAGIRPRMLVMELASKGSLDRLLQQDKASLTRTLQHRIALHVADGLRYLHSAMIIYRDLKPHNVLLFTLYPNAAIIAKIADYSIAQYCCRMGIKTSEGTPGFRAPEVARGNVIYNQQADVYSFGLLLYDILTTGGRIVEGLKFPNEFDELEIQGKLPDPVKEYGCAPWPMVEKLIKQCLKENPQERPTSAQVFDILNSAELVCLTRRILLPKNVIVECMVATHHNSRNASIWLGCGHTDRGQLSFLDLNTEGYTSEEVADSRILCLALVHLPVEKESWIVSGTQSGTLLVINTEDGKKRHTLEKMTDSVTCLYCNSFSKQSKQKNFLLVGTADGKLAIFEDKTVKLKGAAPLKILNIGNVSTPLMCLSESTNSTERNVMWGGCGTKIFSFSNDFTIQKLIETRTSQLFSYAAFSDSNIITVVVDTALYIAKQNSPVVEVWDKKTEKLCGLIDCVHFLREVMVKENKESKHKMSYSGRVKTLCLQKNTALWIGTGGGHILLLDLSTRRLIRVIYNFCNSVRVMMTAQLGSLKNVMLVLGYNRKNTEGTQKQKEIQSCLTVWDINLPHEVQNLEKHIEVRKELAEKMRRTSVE
Where inhibition equals or exceeds 5%, the correct label is 1; where it does not, the label is 0.

- Molecular string: "CN(C)c1cc2c(Nc3ccc4c(cnn4Cc4ccccc4)c3)ncnc2cn1"
  Qualitative label: 0
- Molecular string: "NS(=O)(=O)c1ccc(N/N=C2\\C(=O)Nc3ccc(Cl)cc32)cc1"
  Qualitative label: 1
- Molecular string: "c1ccc(Cc2nc3ccc(Nc4ncnc5ccccc45)cc3[nH]2)cc1"
  Qualitative label: 0
- Molecular string: "Nc1ccc(C#Cc2cncnc2Nc2ccc(OCc3cccc(F)c3)c(Cl)c2)cc1"
  Qualitative label: 0
- Molecular string: "COc1cc(Nc2nccc(-c3cnn4ncccc34)n2)cc(OC)c1"
  Qualitative label: 1
- Molecular string: "COc1ccc(-c2nn3ncccc3c2-c2ccnc(Nc3cccc(C(F)(F)F)c3)n2)cc1"
  Qualitative label: 0
- Molecular string: "CCOc1nccc2c1nc(-c1nonc1N)n2CC"
  Qualitative label: 1
- Molecular string: "O=C1Nc2ccccc2/C1=C/Nc1ccc2[nH]c(=O)[nH]c2c1"
  Qualitative label: 1
- Molecular string: "Cc1ccc(Nc2ccnc(Nc3cccc(C(N)=O)c3)n2)cc1O"
  Qualitative label: 0
- Molecular string: "NS(=O)(=O)c1ccc(Nc2cc(-c3cccc(O)c3)n[nH]2)cc1"
  Qualitative label: 1
